biological target: human GHS receptor (Homo sapiens, UniProt Q92847); assay: Ghrelin IP1 agonist assay (IP1 HTRF) in HEK293s cells expressing human GHS receptor; settings: HEK293s cells stably expressing human GHS receptor; read-out: h IP1 ag EC50
Sequence (Q92847 whole entry): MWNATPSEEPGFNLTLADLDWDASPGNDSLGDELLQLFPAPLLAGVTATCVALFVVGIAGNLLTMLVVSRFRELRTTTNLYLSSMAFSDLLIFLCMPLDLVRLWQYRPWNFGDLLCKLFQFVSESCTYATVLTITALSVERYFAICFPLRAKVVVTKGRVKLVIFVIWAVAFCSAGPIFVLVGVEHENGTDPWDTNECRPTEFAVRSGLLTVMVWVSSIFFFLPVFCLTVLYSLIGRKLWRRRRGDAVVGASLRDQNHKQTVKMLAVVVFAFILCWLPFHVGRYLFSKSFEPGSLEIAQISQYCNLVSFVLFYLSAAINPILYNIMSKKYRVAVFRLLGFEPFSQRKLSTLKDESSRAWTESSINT
measured endpoint: pEC50
By convention, pEC50 is the negative base-10 log of a molar concentration.

Q: Quick check: pEC50 of CCS(=O)(=O)c1ccccc1C(=O)NC(=O)Nc1nc2ccc(S(C)(=O)=O)cc2s1 ?
Ans: 5.43

---

target: human GHS receptor (Homo sapiens, UniProt Q92847); construct: expressed in transfected cells; experiment: h bind IC50 (binding assay, hBindingIC50)
measured endpoint: IC50 (nM)
Write the number in nM without appending the unit.

Q: // query IC50 value for entry CCS(=O)(=O)c1ccccc1C(=O)NC(=O)Nc1nc2ccc(S(C)(=O)=O)cc2s1
Ans: 2220
